Biological target: K63-linked tetraubiquitin (UniProt P0CG48 1-76, G76 to K63 isopeptide bonds between adjacent ubiquitins)
Assay: ITC
quantity_kind: pKd
Scale explanation: pKd corresponds to minus log10 of a concentration expressed in moles per litre.

Find the measured pKd of ASCC2 CUE domain (construct of the ITC experiments of Figure 2) (domain or fragment) AAVGPAMCGVELDSLISQVKDLLPDLGEGFILACLEYYHYDPEQVINNILEERLAPTLSQLDRNLDREM and report it. 5.68
